- Tested on: Staph aureus 2811
- experimental.protocol: MIC, microtiter broth dilution (CLSI M7-A7), Assay 1, Table 12 column D, no serum
- Type: cell-based, Staphylococcus aureus
- measurement.parameters: Staph aureus 2811, Assay 1, no serum
# MIC, column D per entry
Value expressed in µg/mL; do not type the unit.

Examples from the recorded data:
1) COc1ccc2nccc(C(CC[C@@H]3CCN(C4CC(c5ccccc5)C4)C[C@@H]3C(=O)O)OC)c2c1 (stereo partly drawn) [Example 11]; 2
2) COc1ccc2ncc(F)c([C@@H](O)CNC3(C(=O)O)CCCN(C4CC(c5ccccc5)C4)CC3)c2c1 (single isomer, unassigned); 2
3) COc1ccc2nccc([C@@H](O)CC[C@@H]3CCN(C4CC(c5c(F)cccc5F)C4C)C[C@@H]3C(=O)O)c2c1 (stereo partly drawn) [Example 66]; 0.125
4) COc1ccc2ncc(F)c(C(O)CC[C@@H]3CCN(C4CC(c5cc(F)ccc5F)C4)C[C@@H]3C(=O)O)c2n1 (stereo partly drawn) [Example 217]; 0.125
5) COc1ccc2nccc(C(O)CC[C@@H]3CCN(C4CC(c5ccccc5)C4)C[C@@H]3C(=O)O)c2c1 (single isomer, unassigned) [Example 4]; 1

Form field: MIC, column D recorded for COc1ccc2ncc(Cl)c([C@@H](O)CNC3(C(=O)O)CCCN(C4CC(c5ccccc5)C4)CC3)c2c1 (single isomer, unassigned) with Staph aureus 2811 (enter value)
1

Form field: MIC, column D recorded for COc1ccc2nccc(CCCC3(C(=O)O)CCN(CC4CC4c4ccccc4)CC3)c2c1 (stereo not drawn) with Staph aureus 2811 (enter value)
64

Form field: MIC, column D recorded for COc1ccc2ncc(Cl)c(C(O)CC[C@@H]3CCN(C4CC(c5cc(F)ccc5F)C4)C[C@@H]3C(=O)O)c2c1 (stereo partly drawn) [Example 204] with Staph aureus 2811 (enter value)
0.125

* * *

- Test system: Staph aureus 1146
- experimental.protocol: MIC, microtiter broth dilution (CLSI M7-A7), Assay 1, Table 12 column B, no serum
- Assay type: cell-based, Staphylococcus aureus
- measurement.parameters: Staphylococcus aureus, 1146, Staph aureus 1146, Assay 1, no serum
# MIC per entry
Value expressed in µg/mL; do not type the unit.

Examples from the recorded data:
1. COc1ccc2nccc([C@@H](O)CC[C@@H]3CCN(C4CC(c5cccc(F)c5C)C4)C[C@@H]3C(=O)O)c2c1 (stereo partly shown) [Example 57]; 0.25
2. COc1ccc2nccc(C(O)CCC3CCN(C[C@@H]4C[C@H]4c4ccccc4)CC3C(=O)O)c2c1 (relative stereo) [Example 25]; 2
3. COc1ccc2nccc(C(O)CC[C@@H]3CCN(C4CC(c5cc(C)on5)C4)C[C@@H]3C(=O)O)c2c1 (stereo partly shown) [Example 171]; 8

Moving on to the next compound.
Name the recorded MIC for COc1ccc2nccc(C(O)CC[C@@H]3CCN(C4CC(CC5CCCO5)C4)C[C@@H]3C(=O)O)c2c1 (stereo partly shown) [Example 52] .
16

* * *

- Test system: Staph aureus 2811
- experimental.protocol: MIC, microtiter broth dilution (CLSI M7-A7), Assay 1, Table 12 column D, no serum
- Format: cell-based, Staphylococcus aureus
- measurement.parameters: Staph aureus 2811, Assay 1, no serum
endpoint.name: MIC, column D

1. COc1ccc2ncc(Cl)c(CCNC3CCN(C4CC(c5ccccc5)C4)C(C(=O)O)C3)c2c1 (centres unmarked) [Example 101]; <=.0625 μg/ml
2. COc1ccc2nccc(C(O)CC[C@@H]3CCN(C4CC(O)(c5ccccc5)C4)C[C@@H]3C(=O)O)c2c1 (mixture of isomers) [Example 96]; >64 µg/mL
3. COc1ccc2nccc(C(O)CC[C@@H]3CCN(C4CC(CC5CCCC5)C4)C[C@@H]3C(=O)O)c2c1 (some centres unmarked) [Example 49]; <=.0625 μg/ml
4. COc1ccc2ncc(F)c(C(O)CC[C@@H]3CCN(C4CC(c5c(F)cccc5F)C4)C[C@@H]3C(=O)O)c2n1 (some centres unmarked) [Example 189]; <0.0625 µg/mL
5. COc1ccc2ncc(Cl)c(C(O)CC[C@@H]3CCN(C4CC(c5c(F)cccc5F)C4)C[C@@H]3C(=O)O)c2c1 (some centres unmarked) [Example 213]; <0.0625 µg/mL

Name the recorded MIC, column D for COc1ccc2nccc(C(O)CC[C@@H]3CCN(C4CC5CCCCC54)C[C@@H]3C(=O)O)c2c1 (some centres unmarked) [Example 54] .
>64 µg/mL
